- Test system: Mus musculus
- procedure.details: Inhibition of carrageenan-induced hind paw oedema in Swiss Albino mouse at 100 mg/kg, po after 360 mins relative to control
- Type: functional
- test.parameters: Mus musculus, Swiss Albino, po, 6 h
measured.metric: inhibition in vivo at 100 mg/kg (%)
The reply should contain only the number, in %.

Answered cases to consult:
CNC(=S)N1N=C(c2ccc(Cl)cc2)CC1c1ccc[nH]1 (stereo not given) : 1.9
COc1ccc(C2=NN(C(=S)Nc3ccccc3)C(c3ccc[nH]3)C2)cc1 (stereo not given) : 21.6

INPUT: Consider the compound shown here: CCCNC(=S)N1N=C(c2ccc(Cl)cc2)CC1c1ccc[nH]1 (stereo not given) What is its recorded inhibition in vivo at 100 mg/kg?
OUTPUT: 28.1

INPUT: Then what about the compound CNC(=S)N1N=C(c2ccc(OC)cc2)CC1c1ccc[nH]1 (stereo not given) ?
OUTPUT: 17.7

INPUT: Then what about the compound CCCNC(=S)N1N=C(c2ccc(C)cc2)CC1c1ccc[nH]1 (stereo not given) ?
OUTPUT: 22.7

###

- Tested on: Mus musculus
- procedure.details: Inhibition of carrageenan-induced hind paw oedema in Swiss Albino mouse at 100 mg/kg, po after 360 mins relative to control
- Assay type: functional
- test.parameters: Mus musculus, Swiss Albino, po, 6 h
inhibition in vivo at 100 mg/kg vs 20%: at or above is TRUE, below is FALSE.

Illustrative cases are given below, each with its answer.
CCNC(=S)N1N=C(c2ccc(OC)cc2)CC1c1ccc[nH]1 (stereo unspecified) : TRUE
CCNC(=S)N1N=C(c2ccc(Cl)cc2)CC1c1ccc[nH]1 (stereo unspecified) : TRUE
CCNC(=S)N1N=C(c2ccc(C)cc2)CC1c1ccc[nH]1 (stereo unspecified) : FALSE
COc1ccc2c(c1)c(CC(=O)O)c(C)n2C(=O)c1ccc(Cl)cc1 : TRUE
CNC(=S)N1N=C(c2ccc(C)cc2)CC1c1ccc[nH]1 (stereo unspecified) : FALSE

Consider now this further compound.
INPUT: For this compound, is measured inhibition in vivo at 100 mg/kg 20% or higher? CCCNC(=S)N1N=C(c2ccc(OC)cc2)CC1c1ccc[nH]1 (stereo unspecified)
OUTPUT: TRUE

###

Entries annotated with measured pIC50
- target.or.system: Amine oxidase [flavin-containing] B (Rattus norvegicus)
- Sequence (P19643 whole entry): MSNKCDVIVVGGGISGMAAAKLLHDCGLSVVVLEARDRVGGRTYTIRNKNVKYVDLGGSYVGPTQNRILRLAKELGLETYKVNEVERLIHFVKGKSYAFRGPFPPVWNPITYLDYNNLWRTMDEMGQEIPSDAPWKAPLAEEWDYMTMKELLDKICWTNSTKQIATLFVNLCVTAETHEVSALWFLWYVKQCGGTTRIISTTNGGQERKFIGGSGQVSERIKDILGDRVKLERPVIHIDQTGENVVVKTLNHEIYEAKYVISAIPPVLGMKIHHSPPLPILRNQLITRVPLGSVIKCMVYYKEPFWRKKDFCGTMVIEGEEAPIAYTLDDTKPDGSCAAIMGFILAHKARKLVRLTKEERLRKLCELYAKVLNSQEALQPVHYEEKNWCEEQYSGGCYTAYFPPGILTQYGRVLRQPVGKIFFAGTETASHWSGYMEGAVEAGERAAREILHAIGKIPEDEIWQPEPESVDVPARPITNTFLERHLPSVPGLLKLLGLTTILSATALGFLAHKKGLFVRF
pIC50 here is simply -log10 of the concentration when that concentration is written in mol/L.

Answered cases to consult:
Cc1ccc(C2=NN(C(=S)Nc3ccccc3)C(c3ccc[nH]3)C2)cc1 (stereo unspecified) : 3.45
CCNC(=S)N1N=C(c2ccc(Cl)cc2)CC1c1ccc[nH]1 (stereo unspecified) : 3.35
CNC(=S)N1N=C(c2ccc(C)cc2)CC1c1ccc[nH]1 (stereo unspecified) : 3.46
CNC(=S)N1N=C(c2ccc(OC)cc2)CC1c1ccc[nH]1 (stereo unspecified) : 4.90
CCCNC(=S)N1N=C(c2ccc(Cl)cc2)CC1c1ccc[nH]1 (stereo unspecified) : 3.38

INPUT: Consider the molecule shown here: CCCNC(=S)N1N=C(c2ccc(OC)cc2)CC1c1ccc[nH]1 (stereo unspecified) What is its recorded pIC50?
OUTPUT: 4.54

INPUT: Then what about the molecule COc1ccc(C2=NN(C(=S)Nc3ccccc3)C(c3ccc[nH]3)C2)cc1 (stereo unspecified) ?
OUTPUT: 4.52

INPUT: Then what about the molecule CCNC(=S)N1N=C(c2ccc(OC)cc2)CC1c1ccc[nH]1 (stereo unspecified) ?
OUTPUT: 4.66

INPUT: Then what about the molecule Cl.S=C(Nc1ccccc1)N1N=C(c2ccc(Cl)cc2)CC1c1ccc[nH]1 (stereo unspecified) ?
OUTPUT: 3.36

INPUT: Then what about the molecule CNC(=S)N1N=C(c2ccc(Cl)cc2)CC1c1ccc[nH]1 (stereo unspecified) ?
OUTPUT: 3.38

INPUT: Then what about the molecule CCCNC(=S)N1N=C(c2ccc(C)cc2)CC1c1ccc[nH]1 (stereo unspecified) ?
OUTPUT: 3.41
